target: NAMPT (Homo sapiens, UniProt P43490); assay: cell-free coupled-enzyme colorimetric assay with recombinant NAMPT
Sequence (P43490 whole entry): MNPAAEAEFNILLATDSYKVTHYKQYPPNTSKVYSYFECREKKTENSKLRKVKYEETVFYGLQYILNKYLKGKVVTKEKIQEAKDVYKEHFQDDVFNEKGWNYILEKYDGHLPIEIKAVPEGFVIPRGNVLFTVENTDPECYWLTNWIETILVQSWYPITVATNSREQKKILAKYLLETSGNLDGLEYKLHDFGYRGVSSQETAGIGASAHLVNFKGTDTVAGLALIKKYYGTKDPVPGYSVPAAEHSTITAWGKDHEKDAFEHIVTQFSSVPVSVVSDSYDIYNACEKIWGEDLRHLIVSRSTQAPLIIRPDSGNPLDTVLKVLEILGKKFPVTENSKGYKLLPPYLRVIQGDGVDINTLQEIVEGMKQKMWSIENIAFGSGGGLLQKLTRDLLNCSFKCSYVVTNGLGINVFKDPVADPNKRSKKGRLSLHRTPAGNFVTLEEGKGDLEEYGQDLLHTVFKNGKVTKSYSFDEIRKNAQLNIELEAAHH
pIC50: −log10 of the molar value.
measured.metric: pIC50

Input: Which measured pIC50 belongs to Nc1ccc(/C=C/C(=O)NCc2cc3cc(-c4ccc(C(=O)N5CCC(F)(F)CC5)cc4)cc(-c4ccc(F)cc4)c3o2)cn1 , tested on NAMPT (Homo sapiens, UniProt P43490)?
Output: ~6.92
